Test: qHTS Assay for Lipid Storage Modulators (AID 1519)
Details: Drosophila S3 cells, BODIPY lipid droplet/cell ratio, laser cytometry; measured here: lipid channel max response; cells loaded with oleic acid
Records with an inconclusive call do not appear.
Here the recorded max response is given for each entry.
Write the answer as a number in %, unit excluded.

Reference set, count: 2
[
  {
    "COMPOUND": "CC(C)NC(=O)N1CCC2(CC1)CCN(S(=O)(=O)c1ccccc1)CC2",
    "UNIT INFO": "%",
    "max response": 4.57
  },
  {
    "COMPOUND": "O=C(Nc1cccc(F)c1)N1CCC2(CC1)CCN(C(=O)c1cc(C(F)(F)F)cc(C(F)(F)F)c1)CC2",
    "UNIT INFO": "%",
    "max response": -9.94
  }
]

# input // max response lookup, key: Cc1noc(C)c1C(=O)N1CCC2(CC1)CCN(c1ccccn1)CC2
# output 16.7

# input Fill in the blank: the reported max response of CCN(CC)CCC[C@H](C)Nc1ccnc2cc(Cl)ccc12 is ____.
# output -16

# input Suppose we examine the compound CN(C)Cc1ccccc1-c1nc(N(C)Cc2ccco2)c2ccccc2n1 ; what max response value has been reported?
# output 24.7

====

Reported activity change, negative = inhibition values for a set of compounds
Test: AP1 Signaling Pathway (AID 357);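 also: ME-180 reporter cells stimulated with EGF at its EC50 level; % is scaled to controls: 0 for no effect and ±100 for the full control effect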
Conditions: ME-180 AP-1-bla reporter, EGF-induced, beta-lactamase ratio, 5 h; at 7.69 µM (top of the series) unless noted
Records with an inconclusive call do not appear.
Report only the number, with the unit % understood.

Please review the following examples before continuing.
[
  {
    "QUERY SMILES": "COc1ccccc1CN1CCCC2(CCN(C(=O)c3cccn3C)CC2)C1",
    "UNIT INFO": "%",
    "MEASURED NUMBER": -2.64
  },
  {
    "QUERY SMILES": "O=C(c1ccncc1)N1CCC[C@@]2(CCN(c3cccc(-c4ccccc4)c3)C2)C1",
    "UNIT INFO": "%",
    "MEASURED NUMBER": -13.8
  },
  {
    "QUERY SMILES": "COCC(=O)N1CCC[C@@]2(CCN(C(c3ccccc3)c3ccccc3)C2)C1",
    "UNIT INFO": "%",
    "MEASURED NUMBER": 0.34
  },
  {
    "QUERY SMILES": "N#CCCn1c(=O)c(-c2cc(F)cc(F)c2)nc2cnc(Nc3ccccc3)nc21",
    "UNIT INFO": "%",
    "MEASURED NUMBER": 9.43
  }
]

Here is another compound to look at.
# input Quick check: activity change, negative = inhibition of CS(=O)(=O)Nc1cccc(-c2cc(NCc3cccs3)ncn2)c1 ?
# output -14.7

====

Test: Stat Signaling Pathway (AID 446);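 also: ME-180 cervical cancer cells given 40 pM IL-6 alongside compound; SIE-controlled beta-lactamase reporter measured as 460/530 nm FRET emission ratio; % is scaled to controls: 0 for no effect and ±100 for the full control effect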
Settings: ME-180 (cervical carcinoma) SIE beta-lactamase reporter, IL-6 stimulated, 5 h; at 7.69 µM (top of the series) unless noted
Results filed as inconclusive are left out. Calls of active or inactive are those of the source. Calls come from the whole dose curve; as a rule, active = well fitted curve in either direction with a large enough effect (not every such curve was filed as active); inconclusive = small, poorly fitted or top-dose-only effect, or another doubt; inactive = flat fitted curve, though single readings scatter.
Listed compounds paired with reported activity, negative = inhibition

Example entries begin here.
[
  {
    "QUERY SMILES": "c1cncc(-c2nc(NCc3cccs3)c3ccccc3n2)c1",
    "activity, negative = inhibition": "1.18% (inactive)"
  },
  {
    "QUERY SMILES": "O=C(c1cc(C(F)(F)F)cc(C(F)(F)F)c1)N1CCC2(CCN(Cc3ccncc3)CC2)CC1",
    "activity, negative = inhibition": "6.58% (inactive)"
  },
  {
    "QUERY SMILES": "O=c1c(-c2cccs2)nc2cnc(Nc3ccccc3)nc2n1C[C@H]1CCCO1",
    "activity, negative = inhibition": "22.1% (inactive)"
  },
  {
    "QUERY SMILES": "Cn1c(=O)c(CCc2ccccc2)nc2cnc(N3CCOCC3)nc21",
    "activity, negative = inhibition": "1.67% (inactive)"
  },
  {
    "QUERY SMILES": "CN(Cc1ccco1)c1ncncc1-c1cccc(NS(C)(=O)=O)c1",
    "activity, negative = inhibition": "8.28% (inactive)"
  },
  {
    "QUERY SMILES": "N#Cc1cccc(-c2cncnc2NCc2ccccc2)c1",
    "activity, negative = inhibition": "-1.62% (inactive)"
  },
  {
    "QUERY SMILES": "CNc1nc(-c2cccc(NS(C)(=O)=O)c2)nc2ccccc12",
    "activity, negative = inhibition": "-10.2% (inactive)"
  },
  {
    "QUERY SMILES": "CNc1ncncc1-c1ccccc1C",
    "activity, negative = inhibition": "2.49% (inactive)"
  }
]

# input Find the recorded activity, negative = inhibition belonging to O=C(Oc1ccccc1)N1CCC2(CCCN(c3ccc(-c4ccccc4)cc3)C2)CC1 and report it.
# output 6.94% (inactive)

# input I would be grateful if you could share the reported activity, negative = inhibition for COc1ccccc1-c1ccc2ncnc(N(C)Cc3ccco3)c2c1 .
# output -6.49% (inactive)

# credit: PubChem BioAssay (NCATS)
